Below, each entry is listed alongside its reported MIC.
tested on: Escherichia coli IFO 12734
Experimental readout: MIC

INSERT INTO measurements (molecule, system_name, experimental_readout, reported_value) VALUES
  ('COc1c(N2CCN(CC(C)C)CC2)cc(C)c2nc3c4c5c6c(C)c(O)c4c(=O)c(c-3oc12)NC(=O)C(C)=CC=CC(C)C(O)C(C)C(O)C(C)C(OC(C)=O)C(C)C(OC)C=COC(C)(O6)C5=O (stereo not drawn)', 'Escherichia coli IFO 12734', 'MIC', '> 10 mg/L'),
  ('CCOc1c(N2CCCC2)ccc2nc3c4c5c6c(C)c(O)c4c(=O)c(c-3oc12)NC(=O)C(C)=CC=CC(C)C(O)C(C)C(O)C(C)C(OC(C)=O)C(C)C(OC)C=COC(C)(O6)C5=O (stereo not drawn)', 'Escherichia coli IFO 12734', 'MIC', '> 10 mg/L'),
  ('COc1c(N2CCN(CC(C)C)CC2)ccc2nc3c4c5c6c(C)c(O)c4c(=O)c(c-3oc12)NC(=O)C(C)=CC=CC(C)C(O)C(C)C(O)C(C)C(OC(C)=O)C(C)C(OC)C=COC(C)(O6)C5=O (stereo not drawn)', 'Escherichia coli IFO 12734', 'MIC', '> 10 mg/L');
